The compounds below have reported pIC50 for UniProtKB P11362.
Sequence (P11362 22-822, species assumed): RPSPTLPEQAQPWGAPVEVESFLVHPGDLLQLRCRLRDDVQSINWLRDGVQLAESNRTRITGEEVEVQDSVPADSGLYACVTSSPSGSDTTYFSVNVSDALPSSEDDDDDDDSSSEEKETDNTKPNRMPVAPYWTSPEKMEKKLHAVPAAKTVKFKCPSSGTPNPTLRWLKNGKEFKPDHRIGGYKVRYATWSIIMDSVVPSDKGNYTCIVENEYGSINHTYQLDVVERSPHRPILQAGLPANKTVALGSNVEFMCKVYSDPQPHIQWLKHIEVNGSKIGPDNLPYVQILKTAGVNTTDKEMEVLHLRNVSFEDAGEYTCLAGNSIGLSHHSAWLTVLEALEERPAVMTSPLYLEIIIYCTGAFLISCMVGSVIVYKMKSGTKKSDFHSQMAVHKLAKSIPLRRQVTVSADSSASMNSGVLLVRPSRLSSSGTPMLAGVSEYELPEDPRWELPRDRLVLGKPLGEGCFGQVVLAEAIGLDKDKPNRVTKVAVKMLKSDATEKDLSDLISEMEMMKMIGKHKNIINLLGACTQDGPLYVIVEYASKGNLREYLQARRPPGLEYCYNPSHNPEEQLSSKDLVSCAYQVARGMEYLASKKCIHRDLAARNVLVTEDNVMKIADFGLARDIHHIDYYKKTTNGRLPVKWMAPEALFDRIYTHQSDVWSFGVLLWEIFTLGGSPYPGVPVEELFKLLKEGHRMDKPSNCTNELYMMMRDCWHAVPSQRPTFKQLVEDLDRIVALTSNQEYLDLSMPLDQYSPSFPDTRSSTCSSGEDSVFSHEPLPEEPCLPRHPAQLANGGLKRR
pIC50: −log10 of the molar value.

Reported pIC50 of CCN1CCC(Nc2ccc3c(c2)/C(=C(\c2ccc(F)cc2)c2ncc[nH]2)C(=O)N3)CC1 [Entry 58] : > 7.30

Reported pIC50 of CCN1CCC(Nc2ccc3c(c2)/C(=C(\c2ccc(Cl)cc2)c2nc4ccccc4[nH]2)C(=O)N3)CC1 [Entry 45] : 6.30 to 7.30

Reported pIC50 of COCCN1CCC(Nc2ccc3c(c2)/C(=C(\c2ccccc2)c2nc4cc(Cl)ccc4[nH]2)C(=O)N3)CC1 [Entry 72] : > 7.30

Reported pIC50 of CCN1CCC(Nc2ccc3c(c2)/C(=C(\c2ccc(C)cc2)c2nc(C)c[nH]2)C(=O)N3)CC1 [Entry 64] : > 7.30

Reported pIC50 of CCN1CCC(Nc2ccc3c(c2)/C(=C(\c2cccc(C(F)(F)F)c2)c2nc(C)c[nH]2)C(=O)N3)CC1 [Entry 115] : 6.30 to 7.30

Reported pIC50 of CCCc1ccc(/C(=C2/C(=O)Nc3ccc(NC4CCN(CCOC)CC4)cc32)c2ncc[nH]2)cc1 [Entry 94] : > 7.30

Reported pIC50 of COCCN1CCC(Nc2ccc3c(c2)/C(=C(\c2ccc(C(F)(F)F)cc2)c2ncc[nH]2)C(=O)N3)CC1 [Entry 71] : > 7.30

Reported pIC50 of CCOC(=O)c1[nH]c(/C(=C2\C(=O)Nc3ccc(NC4CCN(CCOC)CC4)cc32)c2cccc(F)c2)nc1C [Entry 88] : 6.30 to 7.30

Reported pIC50 of CCN1CCC(Nc2ccc3c(c2)/C(=C(\c2cccc(F)c2)c2nc(-c4ccccc4)c[nH]2)C(=O)N3)CC1 [Entry 95] : > 7.30

Reported pIC50 of CCN1CCC(Nc2ccc3c(c2)/C(=C(/c2cc(F)cc(F)c2)c2nc4cc(F)ccc4[nH]2)C(=O)N3)CC1 [Entry 61] : 6.30 to 7.30

Reported pIC50 of CCN1CCC(Nc2ccc3c(c2)/C(=C(\c2ccc(F)c(Cl)c2)c2nc(C)c[nH]2)C(=O)N3)CC1 [Entry 105] : > 7.30

Reported pIC50 of CCN1CCC(Nc2ccc3c(c2)/C(=C(\c2ccc(Cl)cc2)c2nc(C)c[nH]2)C(=O)N3)CC1 [Entry 102] : > 7.30

Reported pIC50 of CS(=O)(=O)N1CCC(Nc2ccc3c(c2)/C(=C(\c2cccc(F)c2)c2ncc[nH]2)C(=O)N3)CC1 [Entry 93] : 6.30 to 7.30

Reported pIC50 of CCN1CCC(Oc2ccc3c(c2)/C(=C(\c2cccc(Cl)c2)c2ncc[nH]2)C(=O)N3)CC1 [Entry 44] : 6.30 to 7.30

Reported pIC50 of O=C1Nc2ccc(NC3CCNCC3)cc2/C1=C(\c1cccc(F)c1)c1ncc[nH]1 [Entry 81] : > 7.30

Reported pIC50 of CCN1CCC(Nc2ccc3c(c2)/C(=C(\c2ccc(C)c(F)c2)c2nc4ccccc4[nH]2)C(=O)N3)CC1 [Entry 50] : > 7.30

Reported pIC50 of COCCN1CCC(Nc2ccc3c(c2)/C(=C(\c2ccc(F)cc2)c2nc4ccccc4[nH]2)C(=O)N3)CC1 [Entry 47] : 6.30 to 7.30

Reported pIC50 of COCCN1CCC(Nc2ccc3c(c2)/C(=C(\c2ccc(C)cc2)c2nc(C)c[nH]2)C(=O)N3)CC1 [Entry 77] : > 7.30

Reported pIC50 of CCN1CCC(Nc2ccc3c(c2)/C(=C(\c2ccc(C(F)(F)F)c(F)c2)c2ncc[nH]2)C(=O)N3)CC1 [Entry 65] : > 7.30

Reported pIC50 of CCN(CC)CCN1CCC(Nc2ccc3c(c2)/C(=C(\c2cccc(F)c2)c2ncc[nH]2)C(=O)N3)CC1 [Entry 84] : 6.30 to 7.30

Reported pIC50 of COCCN1CCC(Nc2ccc3c(c2)/C(=C(\c2cc(F)cc(F)c2)c2nc(C)c[nH]2)C(=O)N3)CC1 [Entry 76] : > 7.30

Reported pIC50 of O=C1Nc2ccc(NC3CCN(CCN4CCCC4)CC3)cc2/C1=C(\c1cccc(F)c1)c1ncc[nH]1 [Entry 85] : 6.30 to 7.30

Reported pIC50 of CCN1CCC(Nc2ccc3c(c2)/C(=C(\c2ccc(C(F)(F)F)c(F)c2)c2nc(C)c[nH]2)C(=O)N3)CC1 [Entry 103] : > 7.30

Reported pIC50 of CCN1CCC(Nc2ccc3c(c2)/C(=C(\c2ccc(F)c(F)c2)c2ncc[nH]2)C(=O)N3)CC1 [Entry 54] : > 7.30

Reported pIC50 of CCN1CCC(Nc2ccc3c(c2)/C(=C(\c2cc(F)cc(F)c2)c2nc4cc(F)ccc4[nH]2)C(=O)N3)CC1 [Entry 62] : > 7.30

Reported pIC50 of COCCN1CCC(Nc2ccc3c(c2)/C(=C(\c2cccc(F)c2)c2ncc[nH]2)C(=O)N3)CC1 [Entry 41] : > 7.30

Reported pIC50 of COCCN1CCC(Nc2ccc3c(c2)/C(=C(\c2ccc(C)cc2)c2ncc[nH]2)C(=O)N3)CC1 [Entry 69] : > 7.30

Reported pIC50 of COCCN1CCC(Nc2ccc3c(c2)/C(=C(\c2cccc(Cl)c2)c2ncc[nH]2)C(=O)N3)CC1 [Entry 40] : > 7.30

Reported pIC50 of O=C1Nc2ccc(NC3CCN(CCN4CCOCC4)CC3)cc2/C1=C(\c1cccc(F)c1)c1ncc[nH]1 [Entry 83] : > 7.30

Reported pIC50 of CCN1CCC(Nc2ccc3c(c2)/C(=C(\c2ccc(C)cc2)c2ncc[nH]2)C(=O)N3)CC1 [Entry 13] : > 7.30

###

VALUE TYPE: IC50

With PDGFR alpha (Homo sapiens, UniProt P16234) as the test system, CCN1CCC(N(C)c2ccc3c(c2)/C(=C(\c2cccc(Cl)c2)c2nc4ccccc4[nH]2)C(=O)N3)CC1 [Entry 43] showed IC50 of 50 to 500 nM

With PDGFR alpha (Homo sapiens, UniProt P16234) as the test system, CCN1CCC(Nc2ccc3c(c2)/C(=C(\c2ccc(OC)cc2)c2nc4cc(OC)ccc4[nH]2)C(=O)N3)CC1 [Entry 5] showed IC50 of < 50 nM

With PDGFR alpha (Homo sapiens, UniProt P16234) as the test system, COCCN1CCC(Nc2ccc3c(c2)/C(=C(\c2ccccc2)c2ncc[nH]2)C(=O)N3)CC1 [Entry 89] showed IC50 of < 50 nM

With PDGFR alpha (Homo sapiens, UniProt P16234) as the test system, CCCc1ccc(/C(=C2/C(=O)Nc3ccc(NC4CCN(CC)CC4)cc32)c2ncc[nH]2)cc1 [Entry 59] showed IC50 of < 50 nM

With PDGFR alpha (Homo sapiens, UniProt P16234) as the test system, COCCN1CCC(Nc2ccc3c(c2)/C(=C(\c2ccc(C(F)(F)F)cc2)c2ncc[nH]2)C(=O)N3)CC1 [Entry 71] showed IC50 of < 50 nM

With PDGFR alpha (Homo sapiens, UniProt P16234) as the test system, CCN1CCC(Nc2ccc3c(c2)/C(=C(\c2cccc(N)c2)c2nc4ccccc4[nH]2)C(=O)N3)CC1 [Entry 21] showed IC50 of < 50 nM

With PDGFR alpha (Homo sapiens, UniProt P16234) as the test system, COc1ccc2[nH]c(/C(=C3\C(=O)Nc4ccc(NC5CCN(Cc6ccccc6)C5)cc43)c3ccccc3)nc2c1 (stereo not shown) [Entry 1] showed IC50 of 50 to 500 nM

###

pIC50: −log10 of the molar value.
VALUE TYPE: pIC50

With PDGFR alpha (Homo sapiens) as the test system, COCCN1CCC(Nc2ccc3c(c2)/C(=C(\c2ccc(F)c(Cl)c2)c2ncc[nH]2)C(=O)N3)CC1 showed pIC50 of 6.30 to 7.30

With PDGFR alpha (Homo sapiens) as the test system, CCN1CCC(Nc2ccc3c(c2)/C(=C(\c2ccc(F)c(Cl)c2)c2ncc[nH]2)C(=O)N3)CC1 showed pIC50 of > 7.30

With PDGFR alpha (Homo sapiens) as the test system, COCCN1CCC(Oc2ccc3c(c2)/C(=C(\c2cc(F)cc(F)c2)c2nc4ccccc4[nH]2)C(=O)N3)CC1 showed pIC50 of > 7.30

With PDGFR alpha (Homo sapiens) as the test system, CCN1CCC(Nc2ccc3c(c2)/C(=C(/c2ncc[nH]2)c2ccc(C(F)(F)F)cc2F)C(=O)N3)CC1 showed pIC50 of > 7.30

###

So I've got a bunch of compounds here, and I need their IC50 values.

With PDGFR alpha (Homo sapiens, UniProt P16234) as the test system, CCN1CCC(Nc2ccc3c(c2)/C(=C(\c2ccc(C)cc2)c2nc(C)c[nH]2)C(=O)N3)CC1 showed IC50 of < 50 nM

With PDGFR alpha (Homo sapiens, UniProt P16234) as the test system, O=C1Nc2ccc(NC3CC4CCC(C3)N4)cc2/C1=C(\c1ccccc1)c1nc2ccccc2[nH]1 (stereo not shown) showed IC50 of 50 to 500 nM

With PDGFR alpha (Homo sapiens, UniProt P16234) as the test system, CN(C)CCN1CCC(Nc2ccc3c(c2)/C(=C(\c2ccccc2)c2nc4ccccc4[nH]2)C(=O)N3)CC1 showed IC50 of 50 to 500 nM

With PDGFR alpha (Homo sapiens, UniProt P16234) as the test system, CCN1CCC(Oc2ccc3c(c2)/C(=C(\c2cc(F)cc(F)c2)c2nc4ccccc4[nH]2)C(=O)N3)CC1 showed IC50 of < 50 nM
